Biological target: rat GPR14 (U-II receptor) (Rattus norvegicus, UniProt P49684)
Sequence (P49684 1-386): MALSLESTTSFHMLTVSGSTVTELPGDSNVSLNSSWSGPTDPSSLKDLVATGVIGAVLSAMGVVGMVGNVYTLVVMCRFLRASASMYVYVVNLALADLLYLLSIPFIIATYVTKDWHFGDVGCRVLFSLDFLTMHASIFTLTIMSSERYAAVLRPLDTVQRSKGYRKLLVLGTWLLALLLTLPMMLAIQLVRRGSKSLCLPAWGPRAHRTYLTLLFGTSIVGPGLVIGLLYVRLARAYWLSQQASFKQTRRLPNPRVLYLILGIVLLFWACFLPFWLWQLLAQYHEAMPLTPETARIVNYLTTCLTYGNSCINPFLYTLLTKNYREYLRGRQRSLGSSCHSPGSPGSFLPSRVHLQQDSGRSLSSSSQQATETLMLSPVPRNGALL
Assay: Rat UII Calcium Mobilization FLIPR Assay
Details: CHO cells transfected with rat GPR14; antagonist activity after 5 min incubation vs agonist (Ac)-CFWK(2-NaI)C-NH2 at 1 nM
pIC50: −log10 of the molar value.
Given measured pIC50, output fulfilled if it is greater than or equal to 8 and not fulfilled if not.

• CCN1CCN(c2cccc3c2CN([C@H](CCCNc2nccc(OC)n2)c2ccc(OC)c(OC)c2)C3=O)CC1 [Cpd 21] = fulfilled
• CCN1CCN(c2cccc3c2CN([C@H](CCCOCc2ccccc2Cl)c2ccc(OC)c(OC)c2)C3=O)CC1 [Cpd 47] = not fulfilled

Now take the following compound into account.
Q: # check: pIC50 of CCN1CCN(c2cccc3c2CN([C@H](CCCNC(=O)C2CCC2)c2ccc(OC)c(OC)c2)C3=O)CC1 [Cpd 80] is greater than or equal to 8
A: not fulfilled

---

Target: rat GPR14 (U-II receptor) (Rattus norvegicus)
Experiment: Rat UII Calcium Mobilization FLIPR Assay
Conditions: CHO cells transfected with rat GPR14; antagonist activity after 5 min incubation vs agonist (Ac)-CFWK(2-NaI)C-NH2 at 1 nM
Entries and their IC50
// return numeric value only (unit: nM, not printed)

Q: Record request: IC50 value, item `CCN1CCN(c2cccc3c2CN([C@H](CCCN(C)Cc2cccs2)c2ccc(OC)c(OC)c2)C3=O)CC1`
A: 5

Q: Further, for `CCN1CCN(c2cccc3c2CN([C@H](CCCNC(=O)Nc2ccccc2)c2ccc(OC)c(OC)c2)C3=O)CC1` ?
A: 23

Q: Further, for `CCN1CCN(c2cccc3c2CN([C@H](CCCc2ccccc2)c2ccc(OC)c(OC)c2)C3=O)CC1` ?
A: 6

Q: Further, for `CCN1CCN(c2cccc3c2CN([C@H](CCCn2cnnn2)c2ccc(OC)c(OC)c2)C3=O)CC1` ?
A: 31

Q: Further, for `CCN1CCN(c2cccc3c2CN([C@H](CCCn2ncnn2)c2ccc(OC)c(OC)c2)C3=O)CC1` ?
A: 57

Q: Further, for `CCN1CCN(c2cccc3c2CN([C@H](CCCNC(=O)c2c(C)n[nH]c2C)c2ccc(OC)c(OC)c2)C3=O)CC1` ?
A: 16

Q: Further, for `COc1ccc([C@@H](CCCSc2ccccc2)N2Cc3c(cccc3N3CCNCC3)C2=O)cc1OC` ?
A: 19

Q: Further, for `CCN1CCN(c2cccc3c2CN([C@H](CCCN(C)S(=O)(=O)c2cn(C)c(C)n2)c2ccc(OC)c(OC)c2)C3=O)CC1` ?
A: 138

Q: Further, for `CCN1CCN(c2cccc3c2CN([C@H](CCCNc2ncccn2)c2ccc(OC)c(OC)c2)C3=O)CC1` ?
A: 61

Q: Further, for CCN1CCC(C(c2ccc(OC)c(OC)c2)N2Cc3c(cccc3N3CCN(CC)CC3)C2=O)CC1 (stereo not drawn) ?
A: 3600

Q: Further, for `CCN1CCN(c2cccc3c2CN([C@H](CCCNc2nc(C)cc(C)n2)c2ccc(OC)c(OC)c2)C3=O)CC1` ?
A: 12

---

Molecular target: rat GPR14 (U-II receptor) (Rattus norvegicus, UniProt P49684)
Experiment: Rat UII Calcium Mobilization FLIPR Assay
Conditions: CHO cells transfected with rat GPR14; antagonist activity after 5 min incubation vs agonist (Ac)-CFWK(2-NaI)C-NH2 at 1 nM
Entries and their pIC50
Note: pIC50 values are expressed as the negative base-10 logarithm of concentration in M.

Study these solved cases before continuing.
• CCN1CCN(c2cccc3c2CN([C@H](CCCn2ccnc2C)c2ccc(OC)c(OC)c2)C3=O)CC1 = 6.85
• CCN1CCN(c2cccc3c2CN([C@H](CCCNC(=O)c2cn[nH]c2)c2ccc(OC)c(OC)c2)C3=O)CC1 = 8.22
• COc1ccc([C@@H](CCCNc2nccc(C(F)(F)F)n2)N2Cc3c(cccc3N3CCNCC3)C2=O)cc1OC = 8.10
• COc1ccc([C@@H](CCCN(C)c2ccccc2)N2Cc3c(cccc3N3CCNCC3)C2=O)cc1OC = 6.51
• CCNCCC[C@H](c1ccc(OC)c(OC)c1)N1Cc2c(cccc2N2CCN(CC)CC2)C1=O = 6.09
• CCN1CCN(c2cccc3c2CN([C@H](CCCNc2ccccc2)c2ccc(OC)c(OC)c2)C3=O)CC1 = 8.00
• CCN1CCN(c2cccc3c2CN([C@H](CCCN(C)S(=O)(=O)N(C)C)c2ccc(OC)c(OC)c2)C3=O)CC1 = 8.15

Read the next record carefully.
Q: Record request: pIC50 value, item `COc1ccc([C@@H](CCCNc2nccc(C(F)(F)F)n2)N2Cc3c(cccc3N3CCN(C4CC4)CC3)C2=O)cc1OC`
A: 5.77

---

Target: UT receptors in HSMM (Human Skeletal Muscle Myoblasts) (Homo sapiens, UniProt Q9UKP6)
Sequence (Q9UKP6 1-389): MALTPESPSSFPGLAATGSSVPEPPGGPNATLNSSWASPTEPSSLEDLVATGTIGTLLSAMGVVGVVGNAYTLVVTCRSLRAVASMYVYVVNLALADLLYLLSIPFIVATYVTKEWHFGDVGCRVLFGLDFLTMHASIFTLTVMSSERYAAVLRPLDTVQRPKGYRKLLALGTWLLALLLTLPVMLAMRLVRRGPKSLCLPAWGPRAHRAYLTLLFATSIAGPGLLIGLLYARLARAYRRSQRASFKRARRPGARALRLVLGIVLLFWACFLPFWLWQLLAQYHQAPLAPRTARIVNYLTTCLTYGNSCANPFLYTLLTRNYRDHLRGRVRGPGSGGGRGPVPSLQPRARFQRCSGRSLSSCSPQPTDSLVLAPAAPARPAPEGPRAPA
Assay: Human Radioligand Binding Assay ((^125I)-U-II binding to intact HSMM)
pKi: −log10 of the molar value.
Given measured pKi, output true if it is greater than or equal to 7 and false if not.

* CCN1CCN(c2cccc3c2CN([C@H](CCCOCc2ccccc2)c2ccc(OC)c(OC)c2)C3=O)CC1 | true

Q: # check: pKi of `CCN1CCN(c2cccc3c2CN([C@H](CCCNCC(C)(C)C)c2ccc(OC)c(OC)c2)C3=O)CC1` is greater than or equal to 7
A: false

Q: Further, for `CCN1CCN(c2cccc3c2CN([C@H](CCCNC(=O)c2ccnnc2)c2ccc(OC)c(OC)c2)C3=O)CC1` ?
A: true

Q: Further, for `CC[N+]1(C)CCN(c2cccc3c2CN([C@H](CCCN(Cc2ccccc2)Cc2ccccc2)c2ccc(OC)c(OC)c2)C3=O)CC1` ?
A: false

Q: Further, for `CCN1CCN(c2cccc3c2CN([C@H](CCCNC(=O)c2ccco2)c2ccc(OC)c(OC)c2)C3=O)CC1` ?
A: true

---

Target: Human UII (U-II receptor) in 6D9 human rhabdomyosarcoma cells (Homo sapiens, UniProt Q9UKP6)
Construct: 6D9: isolated by dilution subcloning of RMS13 cells, ATCC® Number: CRL-2061; host or cells: 6D9 human rhabdomyosarcoma cells (subclone of RMS13)
Experiment: Human UII Calcium Mobilization Assay
Type: cell-based
Details: 6D9 human rhabdomyosarcoma cells, FLIPR TETRA, average; read-out: Human UII Ca+ Mobilization Average IC50
pIC50: −log10 of the molar value.
Given measured pIC50, output t if it is greater than or equal to 6 and f if not.

Below are worked cases with known answers.
* CCN1CCN(c2cccc3c2CN([C@H](CCCNS(=O)(=O)N(C)C)c2ccc(OC)c(OC)c2)C3=O)CC1 | t
* CCN1CCN(c2cccc3c2CN([C@H](CCCSc2nc(C)cc(C)n2)c2ccc(OC)c(OC)c2)C3=O)CC1 | t
* CCN1CCN(c2cccc3c2CN([C@H](CCCN(C)Cc2cccs2)c2ccc(OC)c(OC)c2)C3=O)CC1 | t

Q: # check: pIC50 of `CCN1CCN(c2cccc3c2CN([C@H](CCCNC(=O)c2cn[nH]c2)c2ccc(OC)c(OC)c2)C3=O)CC1` is greater than or equal to 6
A: t

Q: Further, for `COc1ccc([C@@H](CCCOc2ccccc2)N2Cc3c(cccc3N3CCNCC3)C2=O)cc1OC` ?
A: t

Q: Further, for `CCN1CCN(c2cccc3c2CN([C@H](CCCOCc2ccccc2Cl)c2ccc(OC)c(OC)c2)C3=O)CC1` ?
A: f

Q: Further, for `CCN1CCN(c2cccc3c2CN([C@H](CCCNc2ccccc2)c2ccc(OC)c(OC)c2)C3=O)CC1` ?
A: t

Q: Further, for `CCN1CCN(c2cccc3c2CN([C@H](CCCNc2ncccn2)c2ccc(OC)c(OC)c2)C3=O)CC1` ?
A: t

Q: Further, for CCN1CCN(c2cccc3c2CN(C(c2ccc(OC)c(OC)c2)C2CCN(Cc4ccccc4)CC2)C3=O)CC1 (stereo not drawn) ?
A: f

Q: Further, for `CCN1CCN(c2cccc3c2CN([C@H](CCCN(C)Cc2cccc(F)c2)c2ccc(OC)c(OC)c2)C3=O)CC1` ?
A: t

Q: Further, for `CCN1CCN(c2cccc3c2CN([C@H](CCCNc2nc(OC)cc(OC)n2)c2ccc(OC)c(OC)c2)C3=O)CC1` ?
A: t

Q: Further, for `COc1ccc([C@@H](CCCN(C)c2ccccc2)N2Cc3c(cccc3N3CCNCC3)C2=O)cc1OC` ?
A: f
